The values you see were collected from paper PMC7664216.

target: SaveOBP9 (Sitobion avenae); experiment: Fluorescence competitive ligand binding assay with probe 1-NPN; conditions: pH 7.4; 1-NPN probe; read-out: Ki
METRIC: Ki (µM)
One number for each entry, in µM.

Observe how each entry below is paired with its result.
CCCCC(CC)CO (centres unmarked); 9.93
CCCCCCCCC=O; 35.4
Cc1cc(C(C)(C)C)c(O)c(C(C)(C)C)c1 [Butylated Hydroxytoluene]; 40.5
CCCCCCCCCCCCCCC; 11.4

Enquiry: Param readout= Ki; system= SaveOBP9 (Sitobion avenae); entry= `CCCCCCCCCC=O` ; returns value.
Return: 8.84

====

target: SaveOBP9 (Sitobion avenae, UniProt A0A1I9ZLB6); experiment: Fluorescence competitive ligand binding assay with probe 1-NPN; details: pH 5.0; 1-NPN probe; read-out: Ki
Sequence (A0A1I9ZLB6 entry or part of it): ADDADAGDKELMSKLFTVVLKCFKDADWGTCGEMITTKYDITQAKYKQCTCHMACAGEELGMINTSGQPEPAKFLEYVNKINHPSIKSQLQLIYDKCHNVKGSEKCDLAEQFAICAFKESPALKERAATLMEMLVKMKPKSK
METRIC: Ki
Your reply should be a number followed by the unit it is expressed in.

CC12CCC(CC1=O)C2(C)C (racemic) [(±)-Camphor]; 15.7 µM
C=C/C(C)=C/C/C=C(\C)CCC=C(C)C; 8.59 µM
CCCCCCCCC=O; 11.1 µM
CCCCCCCC=O; 18.3 µM

List Ki for every entry below, keeping the order given.
1. C=CC(=C)CCC=C(C)C
2. C=C(C)[C@@H]1CC=C(C)CC1 [S-(−)-Limonene]

Return:
1. 9.67 µM
2. 10.4 µM
